study.system: STING (Homo sapiens)
procedure.text: STING antagonist activity, cell-based ISG54 promoter-reporter luciferase measurement of IRF activity (THP-1 dual / RAW-ISG cells)
assay.conditions: Antagonist Activity of Exemplary Compounds; cell line and agonist not given; read-out: IC50
Each item that follows carries a reported IC50.

Solved entries (count: 5):
>>> reported_value("CC1Nc2nc(Cl)nc(S(=O)(=O)C(C)C)c2N1CCCCCCCCCCCCCCCCO (stereo not shown) [Compound 112]")
"1 to 5 µM"
>>> reported_value("COC(=O)CCCCCCCCCCCCCCCn1cnc2ncnc(SC)c21 [Compound 27]")
"5 to 10 µM"
>>> reported_value("Cc1nc2nc(Cl)nc(Cl)c2n1CCCCCCCCCCCCCCCC(=O)OC[C@H](O)CO [Compound 104]")
"0.001 to 1 µM"
>>> reported_value("Cc1nc2nc(Cl)nc(Cl)c2n1CCCCCCCCCCCCCCCC(=O)OC(C)(C)C [Compound 81]")
"1 to 5 µM"
>>> reported_value("COC(=O)CCCCCCCCCCCCCCCn1cnc2nc(Cl)nc(O)c21 [Compound 11]")
"10 to 20 µM"

Reported IC50, molecule COC(=O)CCCCCCCCCCCCCCCn1cnc2ncnc(S(C)(=O)=O)c21 [Compound 28] : ____
0.001 to 1 µM

Reported IC50, molecule CCCCCCCCCCCCCCCCn1cnc2nc(Cl)nc(Cl)c21 [Compound 26, 2,6-dichloro-7-hexadecyl-7H-purine] : ____
0.001 to 1 µM

---

study.system: UniProtKB Q86WV6
procedure.text: STING antagonist activity, cell-based ISG54 promoter-reporter luciferase measurement of IRF activity (THP-1 dual / RAW-ISG cells)
assay.conditions: Antagonist Activity of Exemplary Compounds; cell line and agonist not given; read-out: IC50
pIC50: −log10 of the molar value.
measure: pIC50

Solved entries (count: 5):
>>> reported_value("Cc1nc2nc(Cl)nc(Cl)c2n1CCCCCCCCCCCCCCCCO [Compound 75]")
"6.00 to 9.00"
>>> reported_value("COC(=O)CCCCCCCCCCCCCCCn1c(O)nc2nc(Cl)nc(Cl)c21 [Compound 52]")
"< 4.70"
>>> reported_value("COC(=O)CCCCCCCCCCCCCCCn1cnc2c(Cl)ccnc21 [Compound 42]")
"< 4.70"
>>> reported_value("Cc1nc2nc(Cl)nc(Cl)c2n1C [Compound 82, 2,6-dichloro-7,8-dimethyl-7H-purine]")
"5.00 to 5.30"
>>> reported_value("COC(=O)CCCCCCCCCCCCCCCn1c(CO)nc2nc(Cl)nc(Cl)c21 [Compound 93]")
"6.00 to 9.00"

Reported pIC50, compound COC(=O)C(CCC(C(=O)OC)n1cnc2nc(Cl)nc(Cl)c21)n1cnc2nc(Cl)nc(Cl)c21 (stereo not drawn) [Compound 57] : ____
5.30 to 6.00

Reported pIC50, compound Cc1nc2nc(Cl)nc(S(=O)(=O)C(C)C)c2n1CCCCCCCCCCCCCCCC(N)=O [Compound 149] : ____
6.00 to 9.00

Reported pIC50, compound Cc1nc2nc(Cl)nc(S(=O)(=O)C(C)C)c2n1CCCCCCCCCCCCCCCc1n[nH]c(=O)o1 [Compound 165] : ____
6.00 to 9.00

---

study.system: STING (Homo sapiens, UniProt Q86WV6)
Sequence (Q86WV6 whole entry): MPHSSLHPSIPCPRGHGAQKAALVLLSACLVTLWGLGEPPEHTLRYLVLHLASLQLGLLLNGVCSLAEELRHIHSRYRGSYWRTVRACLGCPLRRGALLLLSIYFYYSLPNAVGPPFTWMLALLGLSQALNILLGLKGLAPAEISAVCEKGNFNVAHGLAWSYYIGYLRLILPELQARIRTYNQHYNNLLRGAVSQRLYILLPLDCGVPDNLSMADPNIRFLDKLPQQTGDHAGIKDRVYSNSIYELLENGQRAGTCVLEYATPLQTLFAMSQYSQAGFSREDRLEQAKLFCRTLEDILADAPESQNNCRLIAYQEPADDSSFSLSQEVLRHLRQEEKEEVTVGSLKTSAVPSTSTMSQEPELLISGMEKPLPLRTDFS
procedure.text: STING antagonist activity, cell-based ISG54 promoter-reporter luciferase measurement of IRF activity (THP-1 dual / RAW-ISG cells)
assay.conditions: Antagonist Activity of Exemplary Compounds; cell line and agonist not given; read-out: IC50
pIC50: −log10 of the molar value.
measure: pIC50

Solved entries (count: 2):
>>> reported_value("COC(=O)CCCCCCCCCn1c(C)nc2nc(Cl)nc([S+]([O-])C(C)C)c21 (stereo not drawn)")
"6.00 to 9.00"
>>> reported_value("COC(=O)CCCCCCCCCCCCCCn1c(C)nc2nc(Cl)nc(Cl)c21")
"6.00 to 9.00"

Reported pIC50, molecule "COC(=O)CCCCn1cnc2nc(Cl)nc(Cl)c21" : ____
5.30 to 6.00

Reported pIC50, molecule "COC(=O)CCCCCCCCCCCCCCCn1cnc2nc(Cl)nc(N)c21" : ____
5.30 to 6.00

Reported pIC50, molecule "CCCCCCCCCCCCCCCCn1c(CO)nc2nc(Cl)nc(S(=O)(=O)C(C)C)c21" : ____
6.00 to 9.00

---

study.system: STING (Homo sapiens, UniProt Q86WV6)
procedure.text: STING antagonist activity, cell-based ISG54 promoter-reporter luciferase measurement of IRF activity (THP-1 dual / RAW-ISG cells)
assay.conditions: Antagonist Activity of Exemplary Compounds; cell line and agonist not given; read-out: IC50
pIC50: −log10 of the molar value.
Each item that follows carries a reported pIC50.

Solved entries (count: 3):
>>> reported_value("COC(=O)CCCCCCCCCCCCCCCn1c(C)nc2c(Cl)nc(Cl)nc21")
"4.70 to 5.00"
>>> reported_value("OCCCCCCCCCCCCCCCCn1cnc2nc(Cl)nc(Cl)c21")
"6.00 to 9.00"
>>> reported_value("COC(=O)CCCCCCCCCCCCCCCn1cnc2ncnc(Cl)c21")
"5.30 to 6.00"

Kindly consider the entry below.
Reported pIC50, compound "Cc1nc2c(Cl)nc(Cl)nc2n1CCCCCCCCCCCCCCCc1nnnn1C" : ____
5.00 to 5.30

---

Each item that follows carries a reported IC50.
study.system: STING (Homo sapiens)
procedure.text: STING antagonist activity, cell-based ISG54 promoter-reporter luciferase measurement of IRF activity (THP-1 dual / RAW-ISG cells)
assay.conditions: Antagonist Activity of Exemplary Compounds; cell line and agonist not given; read-out: IC50

Solved entries (count: 3):
>>> reported_value("COC(=O)[C@@H](NC(=O)CCCCCCCCCCCCCCCn1c(C)nc2nc(Cl)nc(S(=O)(=O)C(C)C)c21)C(C)C")
"1 to 1000 nM"
>>> reported_value("COC(=O)CCCCCCCCCn1c(C)nc2nc(Cl)nc(Cl)c21")
"1000 to 5000 nM"
>>> reported_value("Cc1nc2nc(Cl)nc([S+]([O-])C(C)C)c2n1CCCCCCCCCC[N+]1([O-])CCOCC1 (stereo not shown)")
"> 20000 nM"

Reported IC50, molecule "COC(=O)CCCCCCCCCCCCCCCn1cnc2nc(Cl)ncc21" : ____
10000 to 20000 nM

Reported IC50, molecule CCCCCCCCCCCCCCC(C(=O)O)n1ccc2c(Cl)nc(Cl)nc21 (stereo not shown) : ____
> 20000 nM

Reported IC50, molecule "CCOC(=O)Cn1cnc2nc(Cl)nc(Cl)c21" : ____
1 to 1000 nM

Reported IC50, molecule "Cc1nc2nc(Cl)nc(Cl)c2n1CCCCCCCCCCCCCCCCN" : ____
1 to 1000 nM
